Biological target: rat Monoamine Oxidase, MAO-B, Central (MAOBC), Maob (gene 25750)
Assay: NVS_ENZ_rMAOBC: NovaScreen (NVS) Enzymatic Assay for rat Monoamine Oxidase, MAO-B, Central (MAOBC) (AID 2283238)
Inconclusive results are not listed. Active and inactive are the calls of the source. How the source made its calls: active means hit-call score of the fitted dose curve at least 0.9, where 1 is the maximum; inconclusive means response in the unintended direction; inactive means score below 0.9.
Returns: one label drawn from y (active), n (inactive)

Hello, I am checking results. What call was entered for CC(C)(c1ccccc1)c1ccc(O)cc1 ?
n

Test call for this molecule, please: CCOCCOC(C)=O
n

Each molecule tested received a call. Report the one for Cc1cc(O)ccc1Cl .
y

I would be grateful if you could indicate the recorded call for CC(C)(O)C(=O)Nc1ccc([N+](=O)[O-])c(C(F)(F)F)c1 .
y

###

Target: sheep Cyclooxygenase-2 (Cox2), PTGS2 (gene 443460) (UniProt P79208)
Sequence (P79208 whole entry, looked up): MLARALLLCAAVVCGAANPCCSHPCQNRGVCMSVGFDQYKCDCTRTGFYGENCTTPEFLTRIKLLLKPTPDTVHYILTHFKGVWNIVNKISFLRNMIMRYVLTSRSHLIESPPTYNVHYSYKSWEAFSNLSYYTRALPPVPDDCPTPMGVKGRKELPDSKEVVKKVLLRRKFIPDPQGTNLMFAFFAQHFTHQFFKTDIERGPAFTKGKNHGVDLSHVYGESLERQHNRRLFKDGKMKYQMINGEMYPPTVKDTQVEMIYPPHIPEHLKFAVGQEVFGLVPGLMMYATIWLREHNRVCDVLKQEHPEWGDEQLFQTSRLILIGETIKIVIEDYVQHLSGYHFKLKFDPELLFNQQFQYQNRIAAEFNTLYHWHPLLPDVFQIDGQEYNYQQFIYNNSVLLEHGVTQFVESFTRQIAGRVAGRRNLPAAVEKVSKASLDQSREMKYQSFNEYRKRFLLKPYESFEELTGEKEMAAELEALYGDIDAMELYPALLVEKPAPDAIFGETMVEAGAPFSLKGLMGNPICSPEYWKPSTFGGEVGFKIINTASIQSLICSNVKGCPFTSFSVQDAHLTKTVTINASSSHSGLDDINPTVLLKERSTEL
Experiment: NVS_ENZ_oCOX2: NovaScreen (NVS) Enzymatic Assay for sheep Cyclooxygenase-2 (Cox2) (AID 2283231)
Inconclusive results are not listed. Active and inactive are the calls of the source. The calls were made as follows: active = hit-call score of the fitted dose curve at least 0.9, where 1 is the maximum; inconclusive = response in the unintended direction; inactive = score below 0.9.
I would appreciate it if you answered using one of these outcomes: 1.0 for active, 0.0 for inactive

# lookup: test call for Clc1ccc(Cl)cc1
1.0

What was the test verdict on Cc1cccc(C)c1N ?
0.0

What classification did Cc1ccc(O)c(C)c1 end up with in this test?
1.0

I would be grateful if you could indicate the recorded call for N#Cc1ccc(N(CC(N)=O)CC(F)(F)F)cc1C(F)(F)F .
1.0

###

Assay: CCTE_Mundy_HCI_Cortical_Synap_Neur_Matur_CellBodySpotCount: CCTE's Synaptogenesis and Neurite Maturation Assay in rat cortical cells for Cell Body Spot Count, Mundy Lab (AID 2284223)
Activity calls are given as the source filed them. Rule for the calls: active = hit-call score of the fitted dose curve at least 0.9, where 1 is the maximum; inactive = score below 0.9.
Just give me one of these, please: active, inactive

// param item: O=S(=O)(O)C(F)(F)C(F)(F)C(F)(F)C(F)(F)F ; yields the recorded call
inactive

Recorded test outcome, item COc1ccc(O)c(C(C)(C)C)c1
inactive

Lab log entry: C=CC(N)=O — outcome as called in the assay?
inactive

Would you mind telling me which call this test gave ClC1=C(Cl)[C@]2(Cl)[C@@H]3[C@@H](Cl)[C@H]4O[C@H]4[C@@H]3C1(Cl)C2(Cl)Cl ?
active

###

Test: ATG_M_32_CIS: Attagene CIS-FACTORIAL HepG2 Assay for M32 Transcription Factor (Internal Marker) (AID 2282949);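 further: background control marker of the multiplexed CIS panel rather than a real target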
Conditions: HepG2 Attagene cis-factorial M32 reporter, mRNA; actives raise or lower the signal
Active and inactive are the calls of the source. How the source made its calls: active means hit-call score of the fitted dose curve at least 0.9, where 1 is the maximum; inactive means score below 0.9.
Reported Metric: outcome

Worked cases, answers included:
molecule=CC1=C2C[C@H]3[C@@H](CC=C4C[C@@H](O)CC[C@@]43C)[C@@H]2CC[C@]12O[C@@H]1C[C@H](C)CN[C@H]1[C@H]2C reported_metric=outcome result=inactive
molecule=c1ccc(-c2ccccc2)cc1 reported_metric=outcome result=inactive
molecule=CCCCCCCCOC(=O)c1ccccc1C(=O)OCCCCCCCC reported_metric=outcome result=inactive
molecule=Cc1cc(O)ccc1Cl reported_metric=outcome result=inactive
molecule=O=C(NC(=O)c1cc(F)c(F)cc1Cl)Nc1cc(F)ccc1N1CCC(C(=O)O)CC1 reported_metric=outcome result=inactive
molecule="C1CC2OC2CC1C1CO1 (centres undefined)" reported_metric=outcome result=inactive
molecule=Sc1ccccc1 reported_metric=outcome result=inactive
molecule=CO/C=C(/C(=O)OC)c1ccccc1COc1cccc(C(F)(F)F)n1 reported_metric=outcome result=inactive

For the molecule shown here, C=CC(=O)NCNC(=O)C=C , give the reported outcome.
inactive

For the molecule shown here, CCNc1nc(NC(C)C)nc(SC)n1 , give the reported outcome.
inactive

Reported outcome for Nc1ccc(-c2ccc(N)cc2)cc1 : what is it?
inactive

If you can, please state the reported outcome value of Nn1cnnc1 .
inactive

What outcome value was documented for this molecule, O=S(=O)(O)C(F)(F)C(F)(F)C(F)(F)C(F)(F)C(F)(F)C(F)(F)F ?
inactive

Looking for the measured outcome of CCC(C)(c1ccc(O)cc1)c1ccc(O)cc1 , can you help?
inactive

Numbers sourced from PubChem BioAssay (EPA / NIEHS).
